Kindly state Emax for each of the entries shown.
# TARGET OF ASSAY: human 5HT1A receptor (Homo sapiens, UniProt P08908)
# Construct: expressed in transfected cells; host or cells: CHO cells
# Sequence (P08908 1-422): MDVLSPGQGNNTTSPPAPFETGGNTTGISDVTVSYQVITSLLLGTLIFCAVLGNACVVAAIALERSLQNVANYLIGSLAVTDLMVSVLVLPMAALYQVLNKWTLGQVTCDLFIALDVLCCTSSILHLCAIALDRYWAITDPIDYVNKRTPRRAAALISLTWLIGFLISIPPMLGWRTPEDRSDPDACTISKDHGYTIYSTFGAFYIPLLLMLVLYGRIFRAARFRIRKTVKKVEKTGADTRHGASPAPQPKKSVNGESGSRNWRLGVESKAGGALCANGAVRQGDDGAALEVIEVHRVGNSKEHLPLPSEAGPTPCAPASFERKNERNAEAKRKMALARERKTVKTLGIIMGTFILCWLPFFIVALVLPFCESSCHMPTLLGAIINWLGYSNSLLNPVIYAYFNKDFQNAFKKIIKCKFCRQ
# MEASUREMENT DESCRIPTION: 5-HT1A Receptor Intrinsic Activity Assay (forskolin-stimulated cAMP in transfected CHO cells, RIA)
# Type: cell-based
# TEST CONDITIONS: agonist mode: reversal of forskolin (1 µM) stimulated cAMP, CHO cells; Emax = 0 % means no agonist activity
Remember to put the unit after the number in your answer.

Sample `COc1ccccc1C1=CCN(C[C@@H](Cc2ccccc2)NC(=O)C2CCCCC2)CC1` — what was its Emax?
84%

Quick check: Emax of `COc1ccc(F)cc1C1=CCN(C[C@@H](Cc2ccccc2)N(C)C(=O)C2(C)CCCCC2)CC1` ?
0%

So what does the record say about Emax for `COc1ccccc1C1CCN(C[C@@H](Cc2ccccc2)NC(=O)C2CCCCC2)CC1` ?
92%

Requested field: Emax. Item: `COc1ccccc1C1=CCN(C[C@@H](Cc2ccccc2)NC(=O)C2(C)CCCCC2)CC1`
84%

Fill blank: measured Emax of the molecule `COc1ccc(F)cc1C1CCN(C[C@@H](Cc2ccccc2)N(C)C(=O)C2(C)CCCCC2)CC1` is ____.
0%

Which measured Emax value corresponds to `COc1ccccc1C1CCN(C[C@@H](Cc2ccccc2)NC(=O)C2(C)CCCCC2)CC1` ?
0%
